Every entry's value here was drawn from PubChem BioAssay (NCI).

Here, each record is paired with measured growth data.
# Test system: MCF7 breast
# experiment-description: NCI-60 one-dose screen, 48 h (100 = growth as untreated, 0 = no growth, -100 = all killed)
# run-parameters: 10 µM unless noted
Compounds without any hit were thinned out: in the full panel of roughly 83,000, 20% have a hit.
measurement-kind: growth (%)

| molecule | measurement-kind | observed-measurement |
| --- | --- | --- |
| ClCCN(CCCl)c1ccc(/C=N\N=C\c2ccc(N(CCCl)CCCl)cc2)cc1 | growth | 35.1 |
| CC[C@H](C)[C@H](NC(=O)[C@H]1CCCCN1C)C(=O)N(C)[C@H](CCc1nc(C(=O)N[C@@H](Cc2ccccc2)C[C@H](C)C(=O)OC)cs1)C(C)C | growth | 20.5 |
| C=CCc1cc2c(cc1OCC)OCO2 | growth | 90.9 |
| C1CCC([PH+](C2CCCCC2)C2CCCCC2[PH+](C2CCCCC2)C2CCCCC2)CC1.[Au].[CH-]1CCCCC1CC1CCCC[N-]1 (centres undefined) | growth | -44.2 |
| C=CC12CCN(CC1)C(C(O)c1ccnc3ccc(OC)cc13)C2 (centres undefined) | growth | 66.5 |
| CC1(C)N=C(N)N=C(N)N1c1ccc(OCCCNC(=O)Nc2ccc(S(=O)(=O)F)cc2)c(Cl)c1 | growth | 18.4 |
| Oc1c(CCl)cc(Cl)cc1CCl | growth | 105 |
| CCOC(=O)[C@@H](C)C[C@H](Cc1ccccc1)NC(=O)c1csc([C@@H](C[C@H](C(C)C)N(C)C(=O)[C@@H](NC(=O)[C@H]2C[C@H](O)CCN2C)C(C)C)OC(C)=O)n1 | growth | 20 |
| C=C(C)[C@@]12OC3(/C=C/C=C/CCCCC)O[C@@H]1[C@@H]1[C@@H]4O[C@]4(CO)[C@@H](O)[C@]4(O)C(=O)C(C)=C[C@H]4[C@@]1(O3)[C@H](C)[C@H]2OC(=O)c1ccccc1 | growth | 38.7 |
| CCCCN1CCCC[C@@H]1C(=O)N[C@H](C(=O)N(C)[C@H](C[C@@H](OC(C)=O)c1nc(C(=O)NC2CCC(C(=O)OC)CC2)cs1)C(C)C)C(C)C (some centres undefined) | growth | 24.6 |
| c1cnc2[nH]cc(-c3csc(-c4cn(CCCCN5CCOCC5)c5ccccc45)n3)c2c1 | growth | 25.1 |
| COc1ccc2c(c1)c(-c1nc(-c3c[nH]c4ncccc34)cs1)cn2CCCCN1CCCCC1 | growth | -74.9 |
| CN[C@]1(c2ccccc2Cl)CCCC[C@H]1NCCCN1CCN(C)CC1 | growth | 102 |
| O=[N+]([O-])/C=C\c1ccc(Cl)c(Cl)c1 | growth | -32.4 |
| COc1ccc(/C=C\c2cc(OC)c(OC)c(OC)c2)cc1NC(=O)/C=C/c1cc(OC)c(OC)c(OC)c1 | growth | 25.2 |
| CC(C)[C@@H]1NC(=O)[C@]2(C)CSC(=N2)c2csc(n2)CNC(=O)C[C@@H](/C=C/CCS)OC1=O | growth | 13.9 |
| C/C1=C/C(=O)O[C@@H]2C[C@@H](CC[C@H](C)/C=C\C=C\CC1)O[C@@](O)([C@@H]1CSC(=O)N1CO)C2 | growth | 56.8 |
| CC1=C2[C@@H](CC1)[C@]1(C)O[C@@](C(C)C)(C[C@H]1O)[C@H]2OC(=O)C1CC1c1ccccc1 (some centres undefined) | growth | 92.2 |
| Nc1nnnc2nc[nH]c12 | growth | 15.3 |
| Clc1ccc2nnnn2n1 | growth | 19.2 |
| O=C(CC1(O)C(=O)N(Cc2ccccc2)c2ccc(Br)cc21)c1ccc(C(=O)NCC2CCC3(CC2)OOC2(CCCCC2)OO3)cc1 (centres undefined) | growth | 31.5 |
| Fc1ccc(N2COOC3(OOC2)C2CC4CC(C2)CC3C4)cc1 | growth | 76.1 |
| CCOC(=O)CCN(C)C1=Nc2ccc(Cl)cc2C(c2ccccc2)=[N+]([O-])C1 | growth | 97.1 |
| CNC12C3C4C1C1C2C3C41C(=O)N[C@H](C(=O)N(C)[C@H](C[C@@H](OC(C)=O)c1nc(C(=O)N[C@@H](Cc2ccccc2)C[C@H](C)C(=O)OC)cs1)C(C)C)C1CC1 (some centres undefined) | growth | 15.7 |
| Cc1ccccc1NC(=NCCCN1CC1)Nc1ccccc1C | growth | 68.9 |
| CC(=O)C(c1c(O)c2ccccc2oc1=O)c1cc(=O)oc2c1ccc1ccccc12 (centres undefined) | growth | 91.3 |
| Nc1ccc(Cl)cc1 | growth | 98.2 |
| O=C(O)C(Cl)(Cl)C(F)(F)F | growth | 99.6 |
| C=CC[Se]C(=O)c1ccccc1OC(C)=O | growth | -5.53 |
| CC1CCCC(C[N+](C)(C)C)C1=O (centres undefined) | growth | 103 |
| O=C(Nc1ccc(O)cc1)C(Cl)(Cl)Cl | growth | 99.1 |
| COC(=O)[C@H](Cc1ccccc1)NC(=O)c1csc([C@@H](C[C@H](C(C)C)N(C)C(=O)[C@@H](NC(=O)[C@H]2CCCCN2C)C2CC2)OC(C)=O)n1 | growth | 19.5 |
| COC(C(=O)[C@@H](O)[C@@H](C)O)[C@@H]1Cc2cc3cc(O[C@H]4C[C@@H](O[C@H]5C[C@@H](O)[C@H](O)C(C)O5)[C@H](O)C(C)O4)c(C)c(O)c3c(O)c2C(=O)[C@H]1O[C@H]1C[C@@H](O[C@H]2C[C@@H](O[C@H]3C[C@@H](O)[C@@H](O)C(C)O3)[C@@H](O)C(C)O2)[C@H](O)C(C)O1 (some centres undefined) | growth | 0.0061 |
| O=C(N/N=C\c1ccc(N(CCCl)CCCl)cc1Cl)c1cccnc1 | growth | 34.4 |
